switch fluorescence ratio overview
Tested on: ATP;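 further: ATP exposure 15 min at 22 °C before imaging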
Assay: switch fluorescence ratio, 500 uM ATP over buffer (Cy3 cluster intensity, sum of 5 cycles each) (fold (ratio)); higher = stronger signal-on switching upon ATP binding; sequences stand for … in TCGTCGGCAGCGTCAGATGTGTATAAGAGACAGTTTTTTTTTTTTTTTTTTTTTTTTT…TC
Conditions: aptamer strand: ATP DNA aptamer (quencher-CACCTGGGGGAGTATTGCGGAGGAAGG + anchor), 100 nM annealed; ATP concentration: 500 uM
Output: the number by itself.

GGTCTTGTGG; 0.993
GACGCACTAA; 2.76
TGGACTCTGG; 0.973
AGCTGTTGCA; 0.971

Then this sequence:
For TTACTTTGCT , what is its reported switch fluorescence ratio?
1

----------
System: ATP;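 further: ATP exposure 15 min at 22 °C before imaging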
Test: switch fluorescence ratio, 500 uM ATP over buffer (Cy3 cluster intensity, sum of 5 cycles each) (fold (ratio)); higher = stronger signal-on switching upon ATP binding; sequences stand for … in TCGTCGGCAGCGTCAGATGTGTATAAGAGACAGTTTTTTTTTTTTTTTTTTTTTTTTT…TC
Details: aptamer strand: ATP DNA aptamer (quencher-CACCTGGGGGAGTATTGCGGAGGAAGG + anchor), 100 nM annealed; ATP concentration: 500 uM
MEASUREMENT_TYPE: switch fluorescence ratio
Output: the number by itself.

These solved cases illustrate the format of a correct answer.
TGATAGGATT; 0.976
GCGAGGGGCT; 0.972
TAAAAAGCGA; 0.987
TTTAGGCGGG; 1.05
GACGGGTGGC; 1.11
AAATGTGGCA; 0.986
ATCGGAGGTG; 1.02
TCTTTATATT; 1.02

For ATACCGAGGA , what is its reported switch fluorescence ratio?
1.04

For GCCTTTGGCA , what is its reported switch fluorescence ratio?
0.962

For ACTGAGGCCG , what is its reported switch fluorescence ratio?
1.04

For ATAATTACTT , what is its reported switch fluorescence ratio?
1.01

For TTTCTTCAGC , what is its reported switch fluorescence ratio?
1.21

For TCACTATACT , what is its reported switch fluorescence ratio?
1.41

----------
System: ATP;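 further: ATP exposure 15 min at 22 °C before imaging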
Test: switch fluorescence ratio, 500 uM ATP over buffer (Cy3 cluster intensity, sum of 5 cycles each) (fold (ratio)); higher = stronger signal-on switching upon ATP binding; sequences stand for … in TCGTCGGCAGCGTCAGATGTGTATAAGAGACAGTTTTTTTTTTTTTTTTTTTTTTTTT…TC
Settings: aptamer strand: ATP DNA aptamer (quencher-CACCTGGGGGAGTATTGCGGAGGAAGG + anchor), 100 nM annealed; ATP concentration: 500 uM
MEASUREMENT_TYPE: switch fluorescence ratio
Output: the number by itself.

These solved cases illustrate the format of a correct answer.
GGTTATGGG; 0.993
TTCAATTTGG; 1.01
ATAAGGGCCA; 1.01

For GGGAGGGTAT , what is its reported switch fluorescence ratio?
1.01

For TTAAGCCCTT , what is its reported switch fluorescence ratio?
1.04

For CGGTACGGGT , what is its reported switch fluorescence ratio?
0.992

For CCGGGGGTTC , what is its reported switch fluorescence ratio?
1.05

For GTTGGGGCAA , what is its reported switch fluorescence ratio?
1.03

For ATTTATGCGG , what is its reported switch fluorescence ratio?
0.985

For AACGAGAGGA , what is its reported switch fluorescence ratio?
0.986

For TTGTTTGCGA , what is its reported switch fluorescence ratio?
0.999

For TGGTTAAAAA , what is its reported switch fluorescence ratio?
0.98

For CAGAGATCAT , what is its reported switch fluorescence ratio?
0.993

For ATGTGGCTTA , what is its reported switch fluorescence ratio?
0.989

For CCTTTTATTC , what is its reported switch fluorescence ratio?
1.01

For GCGGGGTTTC , what is its reported switch fluorescence ratio?
1.03

For TTTCAAAATT , what is its reported switch fluorescence ratio?
0.994

For TACAAGCTTT , what is its reported switch fluorescence ratio?
0.992

For TTGGGGACGG , what is its reported switch fluorescence ratio?
1

For GCGGTGATGG , what is its reported switch fluorescence ratio?
1

For CAGAGTTTTA , what is its reported switch fluorescence ratio?
1.02

For TATCTACGGG , what is its reported switch fluorescence ratio?
1.04

For AAAAGAACGA , what is its reported switch fluorescence ratio?
1.05

For TTTTGGAGAT , what is its reported switch fluorescence ratio?
1.01

For AAACAGTTGG , what is its reported switch fluorescence ratio?
0.994

For AACATGTCCT , what is its reported switch fluorescence ratio?
1.04

For TACGGTGGGA , what is its reported switch fluorescence ratio?
1.01

For GACGTGTGTC , what is its reported switch fluorescence ratio?
0.983

For TTTATGGTAT , what is its reported switch fluorescence ratio?
0.982

For GCAATTGTCG , what is its reported switch fluorescence ratio?
1.02
